system: JAK1-JH2 domain (Homo sapiens, UniProt P23458)
Construct: IC50 on JH2 domain activity (nM)
Sequence (P23458 583-855 limits assumed): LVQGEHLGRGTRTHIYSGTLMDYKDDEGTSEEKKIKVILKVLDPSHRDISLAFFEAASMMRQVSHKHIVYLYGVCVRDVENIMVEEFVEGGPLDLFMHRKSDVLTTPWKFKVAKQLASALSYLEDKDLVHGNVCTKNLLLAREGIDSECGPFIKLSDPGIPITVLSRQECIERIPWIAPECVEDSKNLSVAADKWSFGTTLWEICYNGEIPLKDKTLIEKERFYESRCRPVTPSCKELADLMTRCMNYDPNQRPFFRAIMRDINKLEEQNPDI
method.summary: Binding activity test for JH2 domain of JAK1 (Tb-antibody/tracer FRET)
For each entry below, report its pIC50 value.
Give bare numbers, as −log10 of the molar value.

Example molecules with recorded pIC50:
• [2H]C([2H])([2H])NC(=O)c1cnc(NC(=O)C2CC2)cc1Nc1ccn2ncc(C(C)C#N)c2c1OC (stereo not shown) [Example 251] = 8.25
• [2H]C([2H])([2H])NC(=O)c1cnc(Nc2ccn(C)n2)cc1Nc1ccn2ncc(C#N)c2c1OC = 8.29
• CCn1ncc2cnc(Nc3cc(NC(=O)C4CC4)ncc3C(=O)NC)c(OC)c21 = 7.34
• [2H]C([2H])([2H])NC(=O)c1cnc(NC(=O)C2CC2)cc1Nc1ccc2cnn(C(C)C#N)c2c1OC (stereo not shown) [Example 249] = 7.59
• [2H]C([2H])([2H])NC(=O)c1cnc(Nc2ccn(C)n2)cc1Nc1ncc2cnn(CC)c2c1OC = 7.13
• [2H]C([2H])([2H])NC(=O)c1cnc(NC(=O)C2CC2)cc1Nc1ccn2ncc(C3CC3)c2c1OC = 8.15
• [2H]C([2H])([2H])NC(=O)c1cnc(NC(=O)C2CC2)cc1Nc1ccc2cnn(C(C)C#N)c2c1OC (single isomer, unassigned) [Example 249A] = 7.75
• [2H]C([2H])([2H])NC(=O)c1cnc(NC(=O)C2CC2)cc1Nc1ccn2ncc(Cl)c2c1OC = 8.17

The following molecules each have a reported value; give each one's pIC50.
1. CCn1ncc2ccc(Nc3cc(NC(=O)C4CC4)ncc3C(=O)NC)c(OC)c21
2. [2H]C([2H])([2H])NC(=O)c1cnc(NC(=O)C2CC2)cc1Nc1ccn2ncc(CC)c2c1OC
3. [2H]C([2H])([2H])NC(=O)c1cnc(Nc2ccc(F)cn2)cc1Nc1nn(C)c2ccn(CC)c(=O)c12
4. [2H]C([2H])([2H])NC(=O)c1cnc(NC(=O)C2CC2)cc1Nc1ccc2cnn(CC(N)=O)c2c1OC

Solution:
1: 8.19; 2: 7.87; 3: 7.91; 4: 7.10

###

method.summary: Microsomal metabolic stability assay
Format: in vitro ADME
settings: pH 7.4; rat liver microsomes, 0.5 mg/mL protein, 1 μM compound; read-out: Rat LM T½
Please respond with reported half-life at 1 μM for every item in the list.
Answers are plain numbers, in min.

Example entries begin here.
• CCn1ccc2scc(Nc3cc(NC(=O)C4CC4)ncc3C(=O)NC)c2c1=O = 16.6
• [2H]C([2H])([2H])NC(=O)c1cnc(Nc2ccc(F)cn2)cc1Nc1ccc2cnn(CC)c2c1OC = 31.6
• [2H]C([2H])([2H])NC(=O)c1cnc(Nc2ccn(C)n2)cc1Nc1cc(F)c2cnn(CC)c2c1OC = 20.9
• [2H]C([2H])([2H])NC(=O)c1cnc(NC(=O)C2CC2)cc1Nc1ccc2cnn(CC(N)=O)c2c1OC = 295

Problem: Item under review: `CNC(=O)c1cnc(NC(=O)C2CC2)cc1Nc1cn(C)c2c(F)cn(C)c(=O)c12` . Reported half-life at 1 μM?
Solution: 13.7

###

Exercise: for every item that follows, state its recorded IC50.
system: TYK2-JH2 domain (Homo sapiens)
Construct: IC50 on JH2 domain activity (nM)
Sequence (P29597 589-875 limits assumed): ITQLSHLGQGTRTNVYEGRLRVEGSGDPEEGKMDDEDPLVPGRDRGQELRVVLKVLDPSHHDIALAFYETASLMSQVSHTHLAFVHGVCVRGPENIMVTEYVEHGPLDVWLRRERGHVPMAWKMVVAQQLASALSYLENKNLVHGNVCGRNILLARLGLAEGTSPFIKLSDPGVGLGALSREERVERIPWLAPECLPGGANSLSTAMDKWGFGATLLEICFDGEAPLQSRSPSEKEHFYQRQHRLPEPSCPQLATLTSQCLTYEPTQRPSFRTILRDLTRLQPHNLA
method.summary: Binding activity test for JH2 domain of TYK2 (Tb-antibody/tracer FRET)
Answers are plain numbers, in nM.

// solved cases for IC50 follow
* [2H]C([2H])([2H])NC(=O)c1cnc(NC(=O)[C@@H]2C[C@H]2F)cc1Nc1ccc2cnn(CC)c2c1OC (relative stereo) | 0.534
* [2H]C([2H])([2H])NC(=O)c1cnc(NC(=O)[C@@H]2C[C@@H]2F)cc1Nc1ccc2cnn(CC)c2c1OC (relative stereo) | 0.265
* CNC(=O)c1nnc(NC(=O)C2CC2)cc1Nc1csc2ccn(C)c(=O)c12 | 0.48

Problem: Fill blank: measured IC50 of the compound `[2H]C([2H])([2H])NC(=O)c1nnc2cc1Nc1cc(cc(-c3ncn(C)n3)c1OC)COCc1cccc(n1)N2` is ____.
Solution: 0.4

###

system: Ba/F3-FL-TYK2-P760L cells (Homo sapiens, UniProt P29597, P760L, cells depend on it)
Construct: BaF3-FL-T2P760L (nM)
Sequence (P29597 whole entry P760L): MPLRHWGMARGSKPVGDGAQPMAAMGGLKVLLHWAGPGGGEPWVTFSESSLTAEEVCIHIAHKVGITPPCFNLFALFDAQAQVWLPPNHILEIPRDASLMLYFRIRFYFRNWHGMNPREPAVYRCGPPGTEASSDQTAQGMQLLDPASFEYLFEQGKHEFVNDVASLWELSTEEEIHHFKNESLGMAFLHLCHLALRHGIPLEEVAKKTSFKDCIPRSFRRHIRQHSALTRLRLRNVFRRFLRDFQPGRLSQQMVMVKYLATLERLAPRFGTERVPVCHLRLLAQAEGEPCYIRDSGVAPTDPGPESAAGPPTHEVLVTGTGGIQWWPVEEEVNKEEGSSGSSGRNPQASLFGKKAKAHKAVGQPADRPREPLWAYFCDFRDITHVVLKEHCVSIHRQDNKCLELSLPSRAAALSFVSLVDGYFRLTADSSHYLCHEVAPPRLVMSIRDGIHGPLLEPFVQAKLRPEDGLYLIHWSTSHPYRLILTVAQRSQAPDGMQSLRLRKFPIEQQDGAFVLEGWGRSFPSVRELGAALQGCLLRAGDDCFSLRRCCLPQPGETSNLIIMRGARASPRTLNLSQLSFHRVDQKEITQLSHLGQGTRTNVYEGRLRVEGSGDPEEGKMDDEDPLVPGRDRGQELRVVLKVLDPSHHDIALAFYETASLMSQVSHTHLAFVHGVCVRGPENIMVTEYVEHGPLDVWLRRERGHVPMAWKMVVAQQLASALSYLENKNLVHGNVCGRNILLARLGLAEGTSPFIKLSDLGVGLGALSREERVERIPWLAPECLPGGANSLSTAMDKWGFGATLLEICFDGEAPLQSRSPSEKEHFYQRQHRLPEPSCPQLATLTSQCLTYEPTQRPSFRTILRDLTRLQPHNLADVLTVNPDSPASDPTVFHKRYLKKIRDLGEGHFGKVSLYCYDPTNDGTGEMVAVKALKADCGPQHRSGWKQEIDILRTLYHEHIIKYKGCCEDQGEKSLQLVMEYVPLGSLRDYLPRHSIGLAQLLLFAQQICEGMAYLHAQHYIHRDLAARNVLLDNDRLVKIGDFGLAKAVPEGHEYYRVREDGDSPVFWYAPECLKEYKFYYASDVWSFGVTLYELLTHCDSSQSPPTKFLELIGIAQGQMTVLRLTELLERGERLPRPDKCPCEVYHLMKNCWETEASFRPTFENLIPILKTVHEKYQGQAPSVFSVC
method.summary: Anti-proliferative assay, Ba/F3-FL-TYK2-P760L cells (Cell-Titer Glo)
Assay type: cell-based
settings: 72 h, read-out: BaF3-FL-T2P760L IC50
# strict inequality: GI50 < 60 nM yields true, everything else yields false

Use the examples below as a reference point.
* [2H]C([2H])([2H])NC(=O)c1cnc(NC(=O)C2CC2)cc1Nc1nn(CCC)c2ccn(CC(F)(F)F)c(=O)c12 | false
* [2H]C([2H])([2H])NC(=O)c1cnc(NC(=O)C2CC2)cc1Nc1ccc2cnn(CC)c2c1OC | true

Problem: Quick check: does `[2H]C([2H])([2H])NC(=O)c1cnc(Nc2ccc(F)cc2)nc1Nc1cccc(-c2ncn(C)n2)c1OC` have GI50 under 60 nM?
Solution: false

Problem: In plain terms, does `[2H]C([2H])([2H])NC(=O)c1cnc(Nc2cnn(C3CC3)c2)nc1Nc1ccc2cnn(CC)c2c1OC([2H])([2H])[2H]` come in under 60 nM for GI50?
Solution: false

Problem: Given [2H]C([2H])([2H])NC(=O)c1cnc(NC(=O)C2CC2)cc1Nc1ccn2ncc(C(C)C(N)=O)c2c1OC (stereo not drawn) , is recorded GI50 strictly lower than 60 nM?
Solution: false

Problem: Consider `COC(=O)c1cnc(NC(=O)C2CC2)cc1Nc1ncn2ccn(CC(F)(F)F)c(=O)c12` . Does its GI50 lie strictly below 60 nM?
Solution: false

###

method.summary: Microsomal metabolic stability assay
Type: in vitro ADME
settings: pH 7.4; human liver microsomes, 0.5 mg/mL protein, 1 μM compound; read-out: Human LM Clint
I'd appreciate it if you could supply microsomal CLint at 1 μM values for the items below.
Numbers only, in µL/min/mg.

- CNC(=O)c1nnc2cc1Nc1cc(cc(-c3ncn(C)n3)c1OC)COCc1cccc(n1)N2: 21.2

Here are 4 molecules. What values of microsomal CLint at 1 μM were reported for them?
1. [2H]C([2H])([2H])NC(=O)c1cnc(Nc2ccc(F)cn2)cc1Nc1ccc2cnn(CC)c2c1OC
2. CNC(=O)c1cnc(NC(=O)C2CC2)cc1Nc1csc2ccn(C)c(=O)c12
3. [2H]C([2H])([2H])NC(=O)c1cnc(Nc2ccc(F)cn2)cc1Nc1ccn2ncc(C#N)c2c1OC
4. [2H]C([2H])([2H])NC(=O)c1cnc(Nc2ccc(F)cn2)cc1Nc1cn(C)c2ccn(CC)c(=O)c12

Solution:
11.9
27.8
9.51
89.9

###

system: Ba/F3-FL-TYK2-P760L cells (Homo sapiens, UniProt P29597, P760L, cells depend on it)
Construct: BaF3-FL-T2P760L (nM)
method.summary: Anti-proliferative assay, Ba/F3-FL-TYK2-P760L cells (Cell-Titer Glo)
Format: cell-based
settings: 72 h, read-out: BaF3-FL-T2P760L IC50
For each record, write down the corresponding GI50.
Give bare numbers, in nM.

• [2H]C([2H])([2H])NC(=O)c1cnc(NC(=O)C2CC2)cc1Nc1nn(CC)c2ccn(CC(F)(F)F)c(=O)c12 [Example 105] = 146
• [2H]C([2H])([2H])NC(=O)c1cnc(NC(=O)C2CC2)cc1Nc1csc2cnn(C(C)C(F)(F)F)c(=O)c12 (single isomer, unassigned) [Example 185A] = 205
• [2H]C([2H])([2H])NC(=O)c1nnc2cc1Nc1cc(cc(-c3nc(C)co3)c1OC)COCc1nc(ccc1F)N2 [Example 93] = 97
• [2H]C([2H])([2H])NC(=O)c1cnc(NC(=O)C2CC2)cc1Nc1ccn2ncc(CCC)c2c1OC [Example 215] = 159
• [2H]C([2H])([2H])NC(=O)c1cnc(Nc2cnn(C3CC3)c2)nc1Nc1cccc(-c2ncn(C)n2)c1OC [Example 2] = 199
• CNC(=O)c1cnc2nc1Nc1cc(cc(-c3ncn(C)n3)c1OC)COCc1cc(ccc1F)N2 [Example 36] = 173
• [2H]C([2H])([2H])NC(=O)c1cnc(NC(=O)C2CC2)cc1Nc1ncc2cnn(CCC(F)(F)F)c2c1OC [Example 275] = 118
• [2H]C([2H])([2H])NC(=O)c1cnc(NC(=O)C2CC2)cc1Nc1csc2c(Cl)cn(C)c(=O)c12 [Example 172] = 109

Below are 3 compounds. Give each one its GI50.
1. [2H]C([2H])([2H])NC(=O)c1cnc(NC(=O)C2CC2)cc1Nc1cn(C)c2ccn(CC(F)(F)F)c(=O)c12 [Example 110]
2. [2H]C([2H])([2H])NC(=O)c1cnc(NC(=O)C2CC2)cc1Nc1csc2cnn(CC)c(=O)c12 [Example 231]
3. [2H]C([2H])([2H])NC(=O)c1cnc(NC(=O)C2CC2)cc1Nc1csc2cnn(C(C)C(F)(F)F)c(=O)c12 (single isomer, unassigned) [Example 185B]

Solution:
[102, 65.9, 912]

Dear colleague, could you send me GI50 for each of the items below? Thanks.
1. [2H]C([2H])([2H])NC(=O)c1nnc(NC(=O)C2CC2)cc1Nc1nn(CC)c2ccn(CC(F)(F)F)c(=O)c12 [Example 218]
2. [2H]C([2H])([2H])NC(=O)c1cnc(NC(=O)C2CC2)cc1Nc1ccc2cnn(C3CC3)c2c1OC([2H])([2H])[2H] [Example 145]
3. [2H]C([2H])([2H])NC(=O)c1cnc(Nc2cccc(C#N)n2)nc1Nc1cccc(-c2ncn(C)n2)c1OC [Example 21]
4. CNC(=O)c1cnc2nc1Nc1cc(cc(-c3ncn(C)n3)c1OC)COCc1cc(cc(C(F)(F)F)c1)N2 [Example 37]

Solution:
68.6
83.6
77.5
988

State the recorded GI50 for every item in the following list.
1. CCn1ccc2c(c(Nc3cc(Nc4ccc(F)cn4)ncc3C(=O)NC)cn2C)c1=O [Example 10]
2. [2H]C([2H])([2H])NC(=O)c1cnc(NC(=O)C2CC2)cc1Nc1ccc2cnn(CCOC)c2c1OC [Example 130]
3. [2H]C([2H])([2H])NC(=O)c1cnc(NC(=O)C2CC2)cc1Nc1cn(C)c2ncn(CC(F)(F)F)c(=O)c12 [Example 195]
4. [2H]C([2H])([2H])NC(=O)c1cnc(NC(=O)C2CC2)cc1Nc1ccn2ncc(C(C)C#N)c2c1OC (centres unmarked) [Example 251]
5. [2H]C([2H])([2H])NC(=O)c1cnc(NC(=O)C2CC2)cc1Nc1cn(C)c2ccn(-c3cnn(C)c3)c(=O)c12 [Example 120]

Solution:
1: 54.5; 2: 357; 3: 560; 4: 117; 5: 1120
